In this section we review reported Ki values for a set of molecules.
target: UniProt:Q9BE39; assay: Cardiac muscle myosin II actin-activated ATPase assay (NADH-coupled); format: biochemical; conditions: 300 nM cardiac myosin, 10 μM actin, 25° C.; read-out: CMMII KI
Write it as a number; the unit µM goes unstated.

The cases that follow already have their Ki on record.
{"columns": ["chemicalStructure", "measuredEndpoint", "assayValue"],
 "data": [
  ["Cc1cc2c(cc1Cl)C(=O)[C@]1(O)CCN(c3ccccc3)C1=N2", "Ki", 9],
  ["Cc1cc2c(s1)C(=O)[C@]1(O)CCN(c3cccc(Br)c3)C1=N2", "Ki", 77],
  ["Cc1ccc2c(c1)C(=O)[C@]1(O)CCN(c3ccc4cncn4c3)C1=N2", "Ki", 200],
  ["Cc1sc2c(c1C)C(=O)[C@]1(O)CCN(c3ccc(Cl)cc3)C1=N2", "Ki", 2.8],
  ["Cc1ccc2c(c1)C(=O)[C@]1(O)CCN(c3ccc4ccoc4c3)C1=N2", "Ki", 9.1],
  ["Cc1cc2c(cc1C)C(=O)[C@]1(O)CCN(c3ccc4c(c3)NCCS4)C1=N2", "Ki", 9.7]
]}

Briefly, Ki measured for `Cc1cc2c(cc1C)C(=O)[C@]1(O)CCN(c3ccc(C#N)c(C)c3)C1=N2` : 53

Briefly, Ki measured for `Cc1cc2c(cc1C)C(=O)[C@]1(O)CCN(c3cnc4c(c3)NCCO4)C1=N2` : 15

Briefly, Ki measured for `Cc1cc2c(s1)N=C1N(c3ccc(C#N)c(C)c3)CC[C@@]1(O)C2=O` : 18

Briefly, Ki measured for `Cc1cc2c(cc1C)C(=O)[C@]1(O)CCN(c3ccc4c(c3)NCCO4)C1=N2` : 2.4

Briefly, Ki measured for `Cc1ccc(N2CC[C@@]3(O)C(=O)c4cc(C)c(C)cc4N=C23)cc1` : 2.8

Briefly, Ki measured for `Cc1cc2c(s1)N=C1N(c3ccc4ncccc4c3)CC[C@@]1(O)C2=O` : 31

Briefly, Ki measured for `COc1cccc(N2CC[C@@]3(O)C(=O)c4cc(F)c(C)cc4N=C23)c1` : 18

* * *

biological target: Rabbit skeletal myosin; experiment: Skeletal muscle myosin II actin-activated ATPase assay; conditions: 20 nM skeletal muscle myosin II; read-out: SKMMII KI
In this section we review reported log10 of Ki values for a set of compounds.
Response schema: value (number) is log10 of Ki in units of µM.

{"columns": ["compound", "measuredEndpoint", "assayValue"],
 "data": [
  ["Cc1ccc2c(c1)C(=O)[C@]1(O)CCN(c3ccc4ccncc4c3)C1=N2 [BPN-0027042]", "log10 of Ki", 1.00],
  ["COc1cc(N2CC[C@@]3(O)C(=O)c4cc(C)ccc4N=C23)ccn1 [BPN-0025919]", "log10 of Ki", 0.26],
  ["Cn1cc(N2CC[C@@]3(O)C(=O)c4cc(C(F)(F)F)ccc4N=C23)cn1 [BPN-0026413]", "log10 of Ki", 1.52],
  ["CCc1nc2cc(N3CC[C@@]4(O)C(=O)c5cc(C)c(C)cc5N=C34)ccc2s1 [BPN-0028918]", "log10 of Ki", -0.19],
  ["Cc1nc2cc(N3CC[C@@]4(O)C(=O)c5cc(C)c(C)cc5N=C34)ccc2s1 [BPN-0027491]", "log10 of Ki", -0.17]
]}

Please turn your attention to the following entry.
Briefly, log10 of Ki measured for COc1cc(N2CC[C@@]3(O)C(=O)c4cc(C(F)(F)F)ccc4N=C23)ccn1 [BPN-0026533] : 1.78

* * *

molecular target: Bovine cardiac myosin (Bos taurus (Bovine), UniProt Q9BE39); assay: Cardiac muscle myosin II actin-activated ATPase assay (NADH-coupled); assay type: biochemical; details: cardiac myosin II Ki over nonmuscle myosin II EC50
Sequence (Q9BE39 whole entry): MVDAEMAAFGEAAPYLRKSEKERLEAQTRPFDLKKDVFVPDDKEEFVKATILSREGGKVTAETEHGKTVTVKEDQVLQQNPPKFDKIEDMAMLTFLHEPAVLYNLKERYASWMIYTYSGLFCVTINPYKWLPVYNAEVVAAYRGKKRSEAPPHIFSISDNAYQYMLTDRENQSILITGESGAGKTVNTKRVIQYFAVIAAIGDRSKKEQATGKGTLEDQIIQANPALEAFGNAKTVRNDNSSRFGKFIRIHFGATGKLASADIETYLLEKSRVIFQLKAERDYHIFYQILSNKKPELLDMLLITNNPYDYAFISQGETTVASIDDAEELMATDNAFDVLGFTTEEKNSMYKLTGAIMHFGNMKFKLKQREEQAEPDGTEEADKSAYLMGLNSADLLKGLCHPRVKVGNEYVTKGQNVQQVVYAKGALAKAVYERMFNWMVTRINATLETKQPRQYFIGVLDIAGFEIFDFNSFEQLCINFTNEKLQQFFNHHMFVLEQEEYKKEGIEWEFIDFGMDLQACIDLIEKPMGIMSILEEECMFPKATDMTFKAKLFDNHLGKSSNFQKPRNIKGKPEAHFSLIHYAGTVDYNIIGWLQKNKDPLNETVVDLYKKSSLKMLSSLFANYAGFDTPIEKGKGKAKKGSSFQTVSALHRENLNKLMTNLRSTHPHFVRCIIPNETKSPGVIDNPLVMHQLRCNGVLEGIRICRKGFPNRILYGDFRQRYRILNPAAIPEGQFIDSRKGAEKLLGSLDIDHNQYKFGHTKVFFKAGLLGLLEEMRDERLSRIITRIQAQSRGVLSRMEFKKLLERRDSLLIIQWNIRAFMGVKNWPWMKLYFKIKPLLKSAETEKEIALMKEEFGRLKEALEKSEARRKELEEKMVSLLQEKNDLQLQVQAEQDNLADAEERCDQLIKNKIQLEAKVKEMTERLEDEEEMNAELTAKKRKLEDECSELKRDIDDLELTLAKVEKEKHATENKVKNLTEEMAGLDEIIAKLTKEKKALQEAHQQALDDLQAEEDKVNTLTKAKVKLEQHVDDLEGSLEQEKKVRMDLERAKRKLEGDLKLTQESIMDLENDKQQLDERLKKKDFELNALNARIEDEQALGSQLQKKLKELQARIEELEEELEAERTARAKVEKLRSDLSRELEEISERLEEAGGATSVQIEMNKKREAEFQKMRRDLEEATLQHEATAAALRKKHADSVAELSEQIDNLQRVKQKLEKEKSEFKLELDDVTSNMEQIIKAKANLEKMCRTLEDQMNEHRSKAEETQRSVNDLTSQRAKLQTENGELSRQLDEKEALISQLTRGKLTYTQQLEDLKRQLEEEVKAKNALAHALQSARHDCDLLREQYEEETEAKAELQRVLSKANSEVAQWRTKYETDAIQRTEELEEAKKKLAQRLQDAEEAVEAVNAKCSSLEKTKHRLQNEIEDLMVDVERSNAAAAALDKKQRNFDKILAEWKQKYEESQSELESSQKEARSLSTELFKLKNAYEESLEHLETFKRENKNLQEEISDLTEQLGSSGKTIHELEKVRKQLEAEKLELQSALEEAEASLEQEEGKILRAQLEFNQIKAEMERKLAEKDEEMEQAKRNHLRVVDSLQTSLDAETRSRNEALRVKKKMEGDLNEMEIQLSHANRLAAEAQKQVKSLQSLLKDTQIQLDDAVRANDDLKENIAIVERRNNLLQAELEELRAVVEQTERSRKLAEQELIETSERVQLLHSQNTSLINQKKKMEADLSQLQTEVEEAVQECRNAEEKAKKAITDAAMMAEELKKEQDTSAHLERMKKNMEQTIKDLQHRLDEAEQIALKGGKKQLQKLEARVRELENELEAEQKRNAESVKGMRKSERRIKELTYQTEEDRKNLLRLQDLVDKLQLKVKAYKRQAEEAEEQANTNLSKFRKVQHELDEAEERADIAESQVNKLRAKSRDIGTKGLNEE
Sequence (P85100 whole entry partner): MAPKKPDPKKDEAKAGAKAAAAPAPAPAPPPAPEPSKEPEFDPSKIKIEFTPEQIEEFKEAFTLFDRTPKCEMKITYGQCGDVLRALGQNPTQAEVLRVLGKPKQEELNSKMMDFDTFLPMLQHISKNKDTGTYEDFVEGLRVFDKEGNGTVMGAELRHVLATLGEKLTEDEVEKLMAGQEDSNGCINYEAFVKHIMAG
Sequence (Q3SZE5 whole entry partner): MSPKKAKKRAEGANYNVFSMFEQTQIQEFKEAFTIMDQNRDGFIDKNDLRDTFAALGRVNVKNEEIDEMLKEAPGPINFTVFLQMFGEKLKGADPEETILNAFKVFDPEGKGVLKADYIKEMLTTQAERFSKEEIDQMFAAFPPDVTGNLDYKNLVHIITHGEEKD
In this section we review reported Ratio CMMII:NMII Ki/EC50 values for a set of compounds.
Just the number, please, no unit attached.

{"columns": ["compound", "measuredEndpoint", "assayValue"],
 "data": [
  ["Cc1ccc(N2CC[C@@]3(O)C(=O)c4cc(C)c(C(F)(F)F)cc4N=C23)cc1", "Ratio CMMII:NMII Ki/EC50", 27.8],
  ["Cc1ccc2c(c1)C(=O)[C@]1(O)CCN(c3cccc(Cl)c3)C1=N2", "Ratio CMMII:NMII Ki/EC50", 23.5],
  ["O=C1c2cc(Cl)c(Cl)cc2N=C2N(c3ccccc3)CC[C@@]12O", "Ratio CMMII:NMII Ki/EC50", 3.5]
]}

So the reported Ratio CMMII:NMII Ki/EC50 for `Cc1cc2c(cc1C)C(=O)[C@]1(O)CCN(c3ccc4c(c3)OCCC4)C1=N2` , on Bovine cardiac myosin (Bos taurus (Bovine), UniProt Q9BE39), turned out to be 11.8

So the reported Ratio CMMII:NMII Ki/EC50 for `Cc1ccc2c(c1)C(=O)[C@]1(O)CCN(c3ccc4ncc(N)cc4c3)C1=N2` , on Bovine cardiac myosin (Bos taurus (Bovine), UniProt Q9BE39), turned out to be 9.6

* * *

In this section we review reported Photostability Dark (24 h) values for a set of molecules.
experiment: Photostability, percentage remaining undegraded under illumination or in the dark; conditions: percentage remaining undegraded in the dark, 24 h
Write it as a number; the unit % goes unstated.

{"columns": ["molecule", "Photostability Dark (24 h) (%)"],
 "data": [
  ["Cc1cc2c(cc1F)C(=O)[C@]1(O)CCN(c3ccc(C#N)cc3)C1=N2 [BPN-0026638]", 91.6]
]}

Briefly, Photostability Dark (24 h) measured for COc1cc(N2CC[C@@]3(O)C(=O)c4cc(Cl)ccc4N=C23)ccn1 [BPN-0026621] : 93.5

Briefly, Photostability Dark (24 h) measured for COc1ccc(N2CC[C@@]3(O)C(=O)c4cc(C)c(C)cc4N=C23)cn1 [BPN-0028648] : 98.4

Briefly, Photostability Dark (24 h) measured for Cc1cc2c(cc1C)C(=O)[C@]1(O)CCN(c3ccc4c(c3)NCCO4)C1=N2 [BPN-0028790] : 95.3

Briefly, Photostability Dark (24 h) measured for Cc1ccc2cc(N3CC[C@@]4(O)C(=O)c5sc(C)cc5N=C34)ccc2n1 [BPN-0028863] : 99

Briefly, Photostability Dark (24 h) measured for Cc1ccc2c(c1)C(=O)[C@]1(O)CCN(c3ccc4ncccc4c3)C1=N2 [BPN-0027040] : 95.7

Briefly, Photostability Dark (24 h) measured for Cc1ccc(N2CC[C@@]3(O)C(=O)c4cc(F)c(C)cc4N=C23)cc1 [BPN-0026579] : 93.7

Briefly, Photostability Dark (24 h) measured for Cc1ccc(N2CC[C@@]3(O)C(=O)c4cc(C)c(C)cc4N=C23)cc1 [BPN-0026663] : 97.3

* * *

In this section we review reported Photostability 24 hours values for a set of compounds.
assay: Photostability, percentage remaining undegraded under illumination or in the dark; details: percentage remaining undegraded after 24 hours illumination

The cases that follow already have their Photostability 24 hours on record.
{"columns": ["compound", "measuredEndpoint", "assayValue"],
 "data": [
  ["Cc1ccc2c(c1)C(=O)[C@]1(O)CCN(c3ccc4nsnc4c3)C1=N2", "Photostability 24 hours", "57.2%"],
  ["Cc1cc2c(cc1C)C(=O)[C@]1(O)CCN(c3ccc4c(c3)COCCN4)C1=N2", "Photostability 24 hours", "55.3%"],
  ["Cc1cc2c(s1)C(=O)[C@]1(O)CCN(c3ccc4ncccc4c3)C1=N2", "Photostability 24 hours", "99.0%"]
]}

Briefly, Photostability 24 hours measured for `Cc1cc(N2CC[C@@]3(O)C(=O)c4cc(C)c(C(F)(F)F)cc4N=C23)on1` : 98.7%

Briefly, Photostability 24 hours measured for `COc1ccc(N2CC[C@@]3(O)C(=O)c4cc(C)c(C)cc4N=C23)cc1` : <1%

Briefly, Photostability 24 hours measured for `O=C1c2cc(C(F)(F)F)ccc2N=C2N(c3ccc4ncccc4c3)CC[C@@]12O` : 4.4%

* * *

In this section we review reported Photostability Dark (24 h) values for a set of compounds.
test: Photostability, percentage remaining undegraded under illumination or in the dark; details: percentage remaining undegraded in the dark, 24 h

{"columns": ["compound", "assayValue"],
 "data": [
  ["Cc1cc2c(cc1C)C(=O)[C@]1(O)CCN(c3ccc4nc(C#N)ccc4c3)C1=N2 [BPN-0027492]", ">99%"],
  ["Cc1cc2c(cc1F)C(=O)[C@]1(O)CCN(c3cnn(C)c3)C1=N2 [BPN-0026746]", ">99%"]
]}

Briefly, Photostability Dark (24 h) measured for COc1cccc(N2CC[C@@]3(O)C(=O)c4cc(C)ccc4N=C23)c1 [BPN-0025044] : >99%

Briefly, Photostability Dark (24 h) measured for CCc1cc2c(s1)N=C1N(c3ccc(Cl)cc3)CC[C@@]1(O)C2=O [BPN-0026770] : >99%

Briefly, Photostability Dark (24 h) measured for Cc1cc2c(cc1F)C(=O)[C@]1(O)CCN(c3ccc4ncccc4c3)C1=N2 [BPN-0027197] : >99%

Briefly, Photostability Dark (24 h) measured for Cc1ccc2c(c1)C(=O)[C@@]1(O)C(=N2)N(c2ccccc2)CC1(C)C [BPN-0026282] : >99%

Briefly, Photostability Dark (24 h) measured for CCc1cc2c(s1)N=C1N(c3ccc(C#N)cc3)CC[C@@]1(O)C2=O [BPN-0027038] : >99%

Briefly, Photostability Dark (24 h) measured for Cc1ccc2c(c1)C(=O)[C@]1(O)CCN(c3ccc4cncn4c3)C1=N2 [BPN-0027406] : >99%

Briefly, Photostability Dark (24 h) measured for Cc1ccc2c(c1)C(=O)[C@]1(O)CCN(c3ccc(CO)c(Cl)c3)C1=N2 [BPN-0027163] : >99%
